B1: GMCL1 (parent)
chain: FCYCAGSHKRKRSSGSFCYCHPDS

variants of: B1; test: protein stability index of a GFP-peptide fusion (GPS, HEK-293T) (PSI 1-6); higher = more stable; settings: c terminus: a fixed tail appended;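 note: lentivirally expressed fusions sorted by FACS into six bins by GFP to DsRed ratio, PSI derived from sequencing read proportions per bin multiplied by bin number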
Listed variants paired with reported protein stability index
# output: bare number, no unit

Y19S; 3.31
C20R; 1.68
A5K; 2.53
G15E; 2.67
S16R; 1.59

Query :: Which protein stability index value belongs to Y3V ?
Result :: 2.07

Query :: Same thing, different variant: P22N
Result :: 2.69

Cited source for all entries: the supplement of paper PMC10567573
